# Tested on: MRC5
# experiment: Antiproliferative activity against human MRC5 cells after 72 hrs by SRB assay
# Format: cell-based
# condition_description: MRC5, 72 h

compound	IC50
CC(C)C[C@H](O)C(=O)NS(=O)(=O)OC[C@H]1O[C@@H](n2cnc3c(N)ncnc32)[C@H](O)[C@@H]1O	16.6 µM
CC(C)C[C@H](O)C(=O)NS(=O)(=O)OC[C@H]1O[C@@H](n2cnc3c(=O)[nH]cnc32)[C@H](O)[C@@H]1O	> 20 µM
CC(C)C[C@H](Cl)C(=O)NS(=O)(=O)OC[C@H]1O[C@@H](n2cnc3c(N)nc(Cl)nc32)[C@H](O)[C@@H]1O	> 20 µM
CO[C@H](C(=O)NS(=O)(=O)OC[C@H]1O[C@@H](n2cnc3c(N)nc(Cl)nc32)[C@H](O)[C@@H]1O)[C@H](OC)C(C)C	> 20 µM
Nc1ncnc2c1ncn2[C@@H]1O[C@H](COS(=O)(=O)NC(=O)[C@@H](O)[C@H](O)C2CC2)[C@@H](O)[C@@H]1O	> 20 µM
Nc1nc(I)nc2c1ncn2[C@@H]1O[C@H](COS(=O)(=O)NC(=O)[C@@H](O)[C@H](O)C2CC2)[C@@H](O)[C@H]1O	> 20 µM
CC(C)[C@@H](O)[C@H](O)C(=O)NS(=O)(=O)OC[C@H]1O[C@@H](n2cnc3c(N)ncnc32)C[C@@H]1O	> 20 µM
CC(C)[C@@H](O)[C@H](O)C(=O)NS(=O)(=O)OC[C@H]1O[C@@H](n2cnc3c(=O)[nH]cnc32)[C@H](O)[C@@H]1O	> 20 µM
COc1cc([C@@H]2c3cc4c(cc3[C@@H](O[C@@H]3O[C@@H]5CO[C@@H](C)O[C@H]5[C@H](O)[C@H]3O)[C@H]3COC(=O)[C@H]23)OCO4)cc(OC)c1O [ETOPOSIDE]	12.7 µM
